Could you please report measured GI50 for the items listed next?
test system: UACC-62; assay: NCI tumour cell line growth inhibition, 48 h
The source made the active and inactive calls. Cut-off read from the data, not from the text of the source: active = GI50 up to about 1.1 µM and inactive = higher.

Use these answered entries as a reference point.
molecule: COc1ccc2nc3cc([N+](=O)[O-])ccc3c(Nc3ccc(S(=O)(=O)NC(C)=O)cc3)c2c1
GI50: 73.3 µM (inactive)
//
molecule: N#CCCC(C=O)(CCC#N)CCC#N
GI50: > 100 µM (inactive)
//
molecule: CC(C)C(=O)Nc1nc2c(ncn2C2OC(CO)C(O)C2O)c(=O)[nH]1 (stereo unspecified)
GI50: > 100 µM (inactive)
//
molecule: O=C(O)/C(Cc1c[nH]nn1)=N\O
GI50: > 100 µM (inactive)
//
molecule: O=C1N=C(SC2OC(CO)C(O)C(O)C2O)S/C1=C\c1ccccc1 (stereo unspecified)
GI50: > 100 µM (inactive)

Query molecule follows.
Given the molecule O=C(/C=C/c1ccc(Cl)c(Cl)c1)CCN1CCN(CCC(=O)/C=C/c2ccc(Cl)c(Cl)c2)CC1 , what is its reported GI50?
19.6 µM (inactive)

----------
tested on: PC-3; assay: NCI tumour cell line growth inhibition, 48 h
Activity calls are given as the source filed them. Cut-off read from the data, not from the text of the source: active = GI50 up to about 1.1 µM and inactive = higher.
property measured: GI50

molecule: c1ccc2c(c1)nnn2C1CCCCO1 (stereo not given)
GI50: > 100 µM (inactive)

Please give GI50 for each item listed below.
1. Cn1cc(-c2ccc(CCOC3CCCCO3)cc2)c2c(C#N)cccc21 (stereo not given)
2. O=C1N=C(SC2OC(CO)C(O)C(O)C2O)S/C1=C\c1ccccc1 (stereo not given)
3. Cc1nc2ccccc2c(=O)n1/N=C(\N=N\c1cc(Cl)ccc1Cl)c1ccccc1
4. C=C1c2nc3ccccc3n2C=C(c2ccc(C)cc2)N1c1ccc(OC)cc1
5. CC(=O)OCC1=C(C)C[C@H]([C@@H](COC(C)=O)C2CCC3C4C[C@H]5O[C@]56CC=CC(=O)[C@]6(C)C4CC[C@@]32C)OC1=O (stereo not given in full)

27.2 µM (inactive)
> 100 µM (inactive)
55.3 µM (inactive)
16.4 µM (inactive)
0.417 µM (active)

Please give GI50 for each item listed below.
1. CC(C)=CCCC1(C)C2COC(=O)C21 (stereo not given)
2. CCCCOc1ccc(NC(=N)Nc2ccc(Cl)cc2)cc1

> 100 µM (inactive)
2.06 µM (inactive)

Please give GI50 for each item listed below.
1. COc1cccc(N2C(=O)/C(=C\c3ccccc3)SC2c2cc(OC)c(OC)c(OC)c2)c1 (stereo not given)
2. C/C(=N\NC(=S)N1CCOCC1)c1nc2cccnc2[nH]1

["46.5 µM (inactive)", "27.9 µM (inactive)"]

----------
system: SW-620; experiment: NCI tumour cell line growth inhibition, 48 h
Activity calls are given as the source filed them. No stated cut-off is given here; in the data, active = GI50 up to about 1.1 µM and inactive = higher.
property measured: GI50

Use these answered entries as a reference point.
compound: COC(=O)/C=C1/OC(c2ccc(C)cc2)=C(Cl)C1=O
measurement target: SW-620
GI50: 10.7 µM (inactive)
//
compound: CSc1nc(-c2ccccc2)c2c(n1)-c1ccccc1CC2
measurement target: SW-620
GI50: > 100 µM (inactive)
//
compound: O=S(=O)(O)c1ccc(/N=N\c2c(O)ccc3cc(Br)ccc23)cc1
measurement target: SW-620
GI50: > 100 µM (inactive)
//
compound: CNc1ncccc1Nc1cc(=O)n2c3cccnc3n(C)c2c1
measurement target: SW-620
GI50: > 100 µM (inactive)
//
compound: Clc1ccc(C2=NCON=C2c2ccc(Cl)cc2)cc1
measurement target: SW-620
GI50: 19.9 µM (inactive)
//
compound: CCOC(=O)C1(C(=O)OCC)OC(=O)NC2=C1CCCC2
measurement target: SW-620
GI50: > 100 µM (inactive)

Please give GI50 for each item listed below.
1. CCN(CC)c1ccc(/N=N/c2ccc(-c3nc4cccnc4s3)cc2)cc1
2. O=CC12CCCN1CCC2
3. COC(=O)C(C)(NC(=O)C(CC(=O)OC(C)(C)C)NC(=O)OC(C)(C)C)c1ccccc1 (stereo unspecified)
4. COc1ccc2c(=O)c3c([nH]c2c1)OCC3=O
5. Nc1nc2ncc(SCc3ccc(C(=O)NC(CCC(=O)O)C(=O)O)cc3)cc2c(=O)[nH]1 (stereo unspecified)

["> 100 µM (inactive)", "> 100 µM (inactive)", "> 100 µM (inactive)", "> 100 µM (inactive)", "> 100 µM (inactive)"]

----------
Could you please report measured GI50 for the items listed next?
system: SR; test: NCI tumour cell line growth inhibition, 48 h
Activity calls are given as the source filed them. Cut-off read from the data, not from the text of the source: active = GI50 up to about 1.1 µM and inactive = higher.

Use these answered entries as a reference point.
compound: O=c1c(F)cn2c(=O)n1CCCCCCCn1c(=O)c(F)cn(c1=O)CCCCCCC2
GI50: 39.4 µM (inactive)

compound: CN(C)C(=S)Nc1nnc(Nc2ccccc2)s1
GI50: > 100 µM (inactive)

Please give GI50 for each item listed below.
1. OCC1NC(CO)C(O)C1O (stereo unspecified)
2. COc1cccc2c(NNc3ccccc3)c3ccc([N+](=O)[O-])cc3nc12
3. C=C1c2nc3ccccc3n2C=C(c2ccc(C)cc2)N1c1ccc(OC)cc1
4. C=C1C(=O)OC2CC(C)C3CC(O)OC(OCC)C3(C)CC12 (stereo unspecified)

["> 100 µM (inactive)", "18.7 µM (inactive)", "3.22 µM (inactive)", "13.6 µM (inactive)"]

----------
system: HOP-92; test: NCI tumour cell line growth inhibition, 48 h
Activity calls are given as the source filed them. Cut-off read from the data, not from the text of the source: active = GI50 up to about 1.1 µM and inactive = higher.
Could you please report measured GI50 for the items listed next?

Please give GI50 for each item listed below.
1. C=C(C)C(=O)CC[C@@H](C)[C@H]1[C@@H](OC2OC(CO)C(O)C(O)C2O)C[C@@]2(C)[C@@H]3C[C@H](O)C4C(C)(C)[C@@H](OC5OC(CO)C(O)C(O)C5O)CC[C@@]45C[C@@]35CC[C@]12C (stereo not given in full)
2. CCOC(=O)C1(C(N)=O)C(=O)c2ccncc2C1=O (stereo not given)
3. Cc1cccc(NC(=S)N/N=C(/c2ccccc2)c2ccccn2)c1
4. Cc1ccc(S(=O)(=O)N(CC(O)COc2ccccc2)c2c(F)c(F)cc(F)c2F)cc1 (stereo not given)

1. > 100 µM (inactive)
2. > 100 µM (inactive)
3. 0.484 µM (active)
4. 11.7 µM (inactive)

Given the compound CC1CN=C(N(C(=O)Nc2ccc(F)c(Cl)c2)c2ccccc2)S1 (stereo not given) , what is its reported GI50?
20.3 µM (inactive)

----------
test system: NCI-H522; assay: NCI tumour cell line growth inhibition, 48 h
Calls of active or inactive are those of the source. Rule as the data show it: active = GI50 up to about 1.1 µM and inactive = higher.
Could you please report measured GI50 for the items listed next?

Use these answered entries as a reference point.
molecule: Cc1ccc(OC2CC(n3cnc4c(=O)[nH]c(Br)nc43)OC2Oc2ccc(C)cc2)cc1 (configuration not stated)
result: 21.2 µM (inactive)
--
molecule: C/C(=N\NC(=S)N1CCOCC1)c1nc2cccnc2[nH]1
result: 18.8 µM (inactive)
--
molecule: C=C(C)C(=O)CC[C@@H](C)[C@H]1[C@@H](OC2OC(CO)C(O)C(O)C2O)C[C@@]2(C)[C@@H]3C[C@H](O)C4C(C)(C)[C@@H](OC5OC(CO)C(O)C(O)C5O)CC[C@@]45C[C@@]35CC[C@]12C (some centres not stated)
result: 80.4 µM (inactive)
--
molecule: COC(CN(C)C(=O)C(C)NC(=O)c1ccccc1)OC (configuration not stated)
result: > 100 µM (inactive)
--
molecule: Cc1ccc2nc(-n3c(/C=C/c4ccccc4O)nc4ccccc4c3=O)sc2c1
result: > 100 µM (inactive)

Please give GI50 for each item listed below.
1. O=C(c1ccc(Cl)cc1)C1OC12C(=O)Nc1ccccc12 (configuration not stated)
2. CN(C=O)/C=C/c1cc(O)ccc1O
3. NC(=O)N1N=C2c3ccccc3OC[C@H]2[C@@H]1c1ccccc1
4. CC(=O)OC/C=C/Cn1nc(Br)c(=O)[nH]c1=O

1.91 µM (inactive)
4.17 µM (inactive)
3.3 µM (inactive)
> 100 µM (inactive)

Please give GI50 for each item listed below.
1. C=C1C(=O)OC2CC(C)C3CC(O)OC(OCC)C3(C)CC12 (configuration not stated)
2. N[C@H]1CCc2c1nc1c(c2-c2ccccc2)CC[C@@H]1N
3. O=C(/C=C/c1ccc(Cl)c(Cl)c1)CCN1CCN(CCC(=O)/C=C/c2ccc(Cl)c(Cl)c2)CC1
4. C#CC1(O)c2ccccc2C(=O)c2ccccc21

["7.03 µM (inactive)", "16.2 µM (inactive)", "8.13 µM (inactive)", "> 100 µM (inactive)"]

Please give GI50 for each item listed below.
1. O=c1oc2cc(O)ccc2c2oc3cc(O)ccc3c12
2. OC1/C(=C/c2ccccc2)CNC/C1=C\c1ccccc1 (configuration not stated)
3. O=C1N=C(SC2OC(CO)C(O)C(O)C2O)S/C1=C\c1ccccc1 (configuration not stated)
4. CCCCCCOc1ccc(C(=O)NOC)cc1

1. 6.46 µM (inactive)
2. > 100 µM (inactive)
3. > 100 µM (inactive)
4. > 100 µM (inactive)
